// provenance: ChEMBL document CHEMBL1933013

# System: HeLa
# test: Antiproliferative activity against human HeLa cells after 96 hrs
# Assay type: functional, cell-based
measured.parameter: IC50 (µg/mL)

CNC(=O)OC[C@H]1O[C@@H](n2cnc3c(NC(=O)NC4CCCCC4)ncnc32)[C@H](O[Si](C)(C)C(C)(C)C)[C@@H]1O[Si](C)(C)C(C)(C)C    69

[I] CCCCCCNC(=O)Nc1ncnc2c1ncn2[C@@H]1O[C@H](CNC(=O)NC)[C@@H](O[Si](C)(C)C(C)(C)C)[C@H]1O[Si](C)(C)C(C)(C)C
[II] CNC(=O)NC[C@H]1O[C@@H](n2cnc3c(NC(=O)Nc4ccc(Cl)cc4)ncnc32)[C@H](O[Si](C)(C)C(C)(C)C)[C@@H]1O[Si](C)(C)C(C)(C)C
Please compare: I and II . Report which one has the smaller IC50 value. Write down the label attached to your selection. II

* * *

# Test system: HeLa
# test: Antiproliferative activity against human HeLa cells after 96 hrs
# Assay type: functional, cell-based
measured.parameter: IC50 (µg/mL)

[1] CNC(=O)NC[C@H]1O[C@@H](n2cnc3c(NC(=O)Nc4ccc(OC)cc4)ncnc32)[C@H](O[Si](C)(C)C(C)(C)C)[C@@H]1O[Si](C)(C)C(C)(C)C
[2] CNC(=O)NC[C@H]1O[C@@H](n2cnc3c(NC(=O)NC4CCCCC4)ncnc32)[C@H](O[Si](C)(C)C(C)(C)C)[C@@H]1O[Si](C)(C)C(C)(C)C
Please indicate which item has the smaller measured IC50: 1 versus 2 To answer, give the label that identifies your chosen option. 1

* * *

# Test system: CCRF-CEM
# test: Antiproliferative activity against human CEM cells after 72 hrs
# Type: cell-based
measured.parameter: IC50

Sample answers from the record:
CCCNC(=O)Nc1ncnc2c1ncn2[C@@H]1O[C@H](COC(=O)NC)[C@@H](O[Si](C)(C)C(C)(C)C)[C@H]1O[Si](C)(C)C(C)(C)C    59 µg/mL
CCCCCCNC(=O)Nc1ncnc2c1ncn2[C@@H]1O[C@H](COC(=O)NC)[C@@H](O[Si](C)(C)C(C)(C)C)[C@H]1O[Si](C)(C)C(C)(C)C    175 µg/mL
CNC(=O)OC[C@H]1O[C@@H](n2cnc3c(NC(=O)Nc4ccccc4)ncnc32)[C@H](O[Si](C)(C)C(C)(C)C)[C@@H]1O[Si](C)(C)C(C)(C)C    > 200 µg/mL

What value of measured IC50 is listed for `CNC(=O)OC[C@H]1O[C@@H](n2cnc3c(NC(=O)Nc4ccc(I)cc4)ncnc32)[C@H](O[Si](C)(C)C(C)(C)C)[C@@H]1O[Si](C)(C)C(C)(C)C` ? ≥ 200 µg/mL

And the next one, `CNC(=O)NC[C@H]1O[C@@H](n2cnc3c(NC(=O)Nc4ccc([N+](=O)[O-])cc4)ncnc32)[C@H](O[Si](C)(C)C(C)(C)C)[C@@H]1O[Si](C)(C)C(C)(C)C` ? > 200 µg/mL

What do we get for `CNC(=O)OC[C@H]1O[C@@H](n2cnc3c(NC(=O)Nc4ccc(OC)cc4)ncnc32)[C@H](O[Si](C)(C)C(C)(C)C)[C@@H]1O[Si](C)(C)C(C)(C)C` ? > 200 µg/mL

// query: `CNC(=O)NC[C@H]1O[C@@H](n2cnc3c(NC(=O)NC4CCCCC4)ncnc32)[C@H](O[Si](C)(C)C(C)(C)C)[C@@H]1O[Si](C)(C)C(C)(C)C` 5.2 µg/mL

Also `CNC(=O)OC[C@H]1O[C@@H](n2cnc3c(NC(=O)Nc4ccc(Cl)cc4)ncnc32)[C@H](O[Si](C)(C)C(C)(C)C)[C@@H]1O[Si](C)(C)C(C)(C)C` ? > 200 µg/mL
